Values compiled from ChEMBL document CHEMBL2375248.

Assay: Inhibition of caspase-like activity of 20S proteasome in rabbit erythrocytes using Z-LLE-betaNA as substrate preincubated for 15 mins measured after 45 mins by fluorescence assay
Format: cell-based, Oryctolagus cuniculus
Conditions: read-out: IC50
Endpoint Label: pIC50
Reminder that pIC50 means the negative base-10 logarithm of the concentration expressed in mol/L.

Check out these entries, answers already filled in.
>  <Molecule>
CC1(Cc2ccccc2)OC(=O)c2c1ccn(-c1ccc(S(N)(=O)=O)cc1)c2=O (racemic)

>  <pIC50>
5.44

$$$$
>  <Molecule>
CCC1(C)OC(=O)c2c1ccn(-c1ccc(S(N)(=O)=O)cc1)c2=O (racemic)

>  <pIC50>
5.31

$$$$
>  <Molecule>
CCN(CC)CC(O)Cn1ccc2c(c1=O)C(=O)OC21CCCCC1 (centres undefined)

>  <pIC50>
5.17

$$$$
>  <Molecule>
O=C1OC2(CCCCC2)c2ccn(CCCN3CCOCC3)c(=O)c21

>  <pIC50>
4.33

$$$$

Which pIC50 value is on record for CC1(CCc2ccccc2)OC(=O)c2c1ccn(-c1ccc(S(N)(=O)=O)cc1)c2=O (racemic) ?
5.55

Bench note: what pIC50 did CC1(Cc2ccccc2)OC(=O)c2c1ccn(CCc1ccc(Cl)cc1)c2=O (racemic) show?
5.15

GET /values?readout=pIC50&item= CCN(CC)CC(O)Cn1ccc2c(c1=O)C(=O)OC2(C)c1ccccc1 (mixture of isomers)
5.36

Looking for the measured pIC50 of CC1(c2ccccc2)OC(=O)c2c1ccn(CCCN1CCOCC1)c2=O (racemic) , can you help?
4.25

Param item = C[C@@]12OC(=O)[C@]1([C@@H](O)[C@@H]1C=CCCC1)NC(=O)[C@@H]2CCCl [MARIZOMIB] ; retrieve measured pIC50.
6.34

====

Assay: Inhibition of caspase-like activity of 20S proteasome in rabbit erythrocytes using Z-LLE-betaNA as substrate preincubated for 15 mins measured after 45 mins by fluorescence assay
Assay type: cell-based, Oryctolagus cuniculus
Details: read-out: IC50
pIC50: −log10 of the molar value.
Mark FALSE for pIC50 values under 5, and TRUE for everything at or above.

Use the examples below as a reference point.
>  <Molecule>
CC1(C)OC(=O)c2c1ccn(-c1ccc(S(=O)(=O)NC(=N)N)cc1)c2=O

>  <Category Label>
TRUE

$$$$
>  <Molecule>
Cn1ccc2c(c1=O)C(=O)OC2(C)c1ccccc1 (racemic)

>  <Category Label>
FALSE

$$$$
>  <Molecule>
CC1(C)OC(=O)c2c1ccn(-c1ccc(S(=O)(=O)NC(=O)c3ccccc3)cc1)c2=O

>  <Category Label>
TRUE

$$$$

Switching to the query record.
Threshold query (pIC50 >= 5) on CC1(C)CC2(CCO1)OC(=O)c1c2ccn(CCCN2CCOCC2)c1=O (stereo not given)
FALSE

====

Target: Calpain-1 catalytic subunit (Homo sapiens, UniProt P07384)
Sequence (P07384 whole entry): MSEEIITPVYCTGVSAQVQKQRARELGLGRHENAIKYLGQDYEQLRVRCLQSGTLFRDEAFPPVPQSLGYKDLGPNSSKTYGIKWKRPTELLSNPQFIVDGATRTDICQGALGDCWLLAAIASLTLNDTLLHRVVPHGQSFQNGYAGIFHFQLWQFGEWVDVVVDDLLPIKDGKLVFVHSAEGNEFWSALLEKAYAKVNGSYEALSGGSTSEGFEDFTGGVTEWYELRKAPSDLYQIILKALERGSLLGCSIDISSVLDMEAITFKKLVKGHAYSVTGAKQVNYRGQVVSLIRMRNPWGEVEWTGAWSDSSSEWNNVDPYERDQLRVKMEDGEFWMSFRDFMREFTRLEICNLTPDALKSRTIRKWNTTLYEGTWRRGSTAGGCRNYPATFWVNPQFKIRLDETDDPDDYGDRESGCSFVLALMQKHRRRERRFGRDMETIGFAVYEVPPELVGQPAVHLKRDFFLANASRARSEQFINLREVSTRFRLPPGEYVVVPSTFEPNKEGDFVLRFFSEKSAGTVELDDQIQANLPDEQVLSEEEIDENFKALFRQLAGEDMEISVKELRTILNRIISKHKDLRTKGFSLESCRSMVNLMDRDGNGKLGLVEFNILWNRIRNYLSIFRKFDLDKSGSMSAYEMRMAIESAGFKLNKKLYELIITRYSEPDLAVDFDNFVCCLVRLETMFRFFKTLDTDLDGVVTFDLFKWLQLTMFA
Assay: Inhibition of calpain 1 in human erythrocytes using Suc-LLVY-AMC as substrate by fluorescence assay
Endpoint Label: IC50 (µM)
Form entry: value (µM) — number only.

Would you mind telling me what IC50 value was observed for CC1(Cc2ccccc2)OC(=O)c2c1ccn(CCc1ccc(Cl)cc1)c2=O (racemic) ?
29.6

====

Assay: Inhibition of trypsin-like activity of 20S proteasome in rabbit erythrocytes using Boc-LRR-AMC as substrate preincubated for 15 mins measured after 45 mins by fluorescence assay
Type: cell-based, Oryctolagus cuniculus
Settings: read-out: IC50
Endpoint Label: pIC50
Answer as the number alone; pIC50 is minus log10 of concentration in mol/L.

So what does the record say about pIC50 for C[C@@]12OC(=O)[C@]1([C@@H](O)[C@@H]1C=CCCC1)NC(=O)[C@@H]2CCCl [MARIZOMIB] ?
7.68

====

Species: Oryctolagus cuniculus
Experiment: Inhibition of caspase-like activity of 20S proteasome in rabbit erythrocytes using Z-LLE-betaNA as substrate at 100 uM preincubated for 15 mins measured after 45 mins by fluorescence assay relative to control
# if value of inhibition reaches 50%, tag Satisfied; if it stays below, tag Not satisfied

Examples with answers:
>  <Compound>
CC1(C)OC(=O)c2c1ccn(-c1ccc(S(=O)(=O)Nc3ccnn3-c3ccccc3)cc1)c2=O

>  <Category Label>
Not satisfied

$$$$
>  <Compound>
CC1(C)OC(=O)c2c1ccn(-c1ccc(S(=O)(=O)Nc3nccs3)cc1)c2=O

>  <Category Label>
Not satisfied

$$$$
>  <Compound>
CC1(C)OC(=O)c2c1ccn(-c1ccc(S(=O)(=O)Nc3ccccn3)cc1)c2=O

>  <Category Label>
Satisfied

$$$$
>  <Compound>
O=C1OC2(CCCCC2)c2ccn(CC(O)CN3CCOCC3)c(=O)c21 (configuration not stated)

>  <Category Label>
Not satisfied

$$$$

Now consider the entry below.
Can CC(C)CC1(C)OC(=O)c2c1ccn(CCCN1CCOCC1)c2=O (racemic) be said to have inhibition at or above 50%?
Not satisfied
